Listed below are molecules with IC50 for Sterol O-acyltransferase 1 (Homo sapiens, UniProt P35610), each taken from published literature.
All answers are understood in µM, so give the number only.

Report IC50 for C[C@@]12CO[C@@H](c3ccccc3)O[C@H]1CC[C@@]1(C)[C@H]2C[C@H](OC(=O)c2cccc(Br)c2)[C@@]2(C)Oc3cc(-c4cccnc4)oc(=O)c3[C@H](O)[C@H]12 please.
4.3

Report IC50 for N#Cc1ccc(Nc2nnc(C(=O)Nc3ccc(O[C@H]4CC[C@@H](C(=O)O)CC4)cc3)o2)cc1 please.
14.3

Report IC50 for O=C(Nc1ccc(O[C@H]2CC[C@@H](C(=O)O)CC2)cc1F)c1nnc(Nc2cc(F)c(F)cc2F)o1 please.
0.31

Report IC50 for C=CCc1c(C(=O)OCC)c(C(=O)OCC)c2c(-c3ccccc3)cc(N3CCOCC3)nn12 please.
1.4

Report IC50 for Cc1cccc([C@@H]2OC[C@@]3(C)[C@@H]4C[C@H](OC(=O)c5ccc(C#N)cc5)[C@@]5(C)Oc6cc(-c7cccnc7)oc(=O)c6[C@H](O)[C@@H]5[C@@]4(C)CC[C@@H]3O2)c1 please.
3.73
